# test_description: Aqueous solubility, pH dependent
# Format: physicochemical
# conditions_used: pH 4
observable: Aqueous Solubility (µg/mL)
Give the number; µg/mL is assumed, so skip it.

Give the reported Aqueous Solubility for this compound. CCCCCc1cc(OC(=O)C(N)C(C)C)c2c(c1)OC(C)(C)C1CCC(C)=CC21 (stereo not drawn) [THC-Valinate (6), Δ^9-THC-valinate]
10.34

Indicate the recorded Aqueous Solubility value for this compound: CCCCCc1cc(OC(=O)[C@@H](N)Cc2ccc(O)cc2)c2c(c1)OC(C)(C)[C@@H]1CCC(C)=C[C@@H]21 [THC-Tyrosinate (11), Δ^9-THC-tyrosinate]
0.73

Specify measured Aqueous Solubility for CCCCCc1cc(OC(=O)CNC)c2c(c1)OC(C)(C)[C@@H]1CCC(C)=C[C@@H]21 [THC-Sarcosinate (7), Δ^9-THC-sarcosinate] .
50.74

Supply recorded Aqueous Solubility for CCCCCc1cc(OC(=O)[C@@H](N)C(C)C)c2c(c1)OC(C)(C)C1CCC(C)=CC21.O=C(O)CC(=O)O (stereo partly drawn) [THC-Valinate malonate] here.
13.92

Give a short answer stating reported Aqueous Solubility for CCCCCc1cc(OC(=O)C(N)CC(C)C)c2c(c1)OC(C)(C)C1CCC(C)=CC21 (stereo not drawn) [THC-Leucinate (8), Δ^9-THC-leucinate] .
1.95

Specify Aqueous Solubility for CCCCCc1cc(OC(=O)[C@@H](N)CCC(N)=O)c2c(c1)OC(C)(C)[C@@H]1CCC(C)=C[C@@H]21 [THC-Glutaminate (9), Δ^9-THC-glutaminate] and stop.
22.24

----------
# test_description: Chemical stability pH dependent at 25° C.
# Format: physicochemical
# conditions_used: Buffer pH 7.0, 25° C.
observable: First order rate constant

Return First order rate constant for the following compound: CCCCCc1cc(O)c2c(c1)OC(C)(C)C1CCC(C)=CC21 (stereo not drawn) [THC, Δ^9-Tetrahydrocannabinol, reference compound]
0.0098 h⁻¹

Give the measured First order rate constant for CCCCCc1cc(OC(=O)[C@@H](N)Cc2ccc(O)cc2)c2c(c1)OC(C)(C)[C@@H]1CCC(C)=C[C@@H]21 [THC-Tyrosinate (11), Δ^9-THC-tyrosinate]
25.02 ± 0.88 ×10^−3 h^−1

For CCCCCc1cc(OC(=O)C(N)CC(C)C)c2c(c1)OC(C)(C)C1CCC(C)=CC21 (stereo not drawn) [THC-Leucinate (8), Δ^9-THC-leucinate] , write its First order rate constant.
85.91 ± 16.83 ×10^−3 h^−1

----------
# test_description: Thermal stability, 120° C. for 10 min
# Format: physicochemical
# conditions_used: 120° C. for 10 min
# Experimental: C. Thermal Stability—120° C. for 10 min.
Answer each item with its documented THC content of the sample after heating.
Supply the numeric figure in µg, leaving out any unit text.

Supply THC content of the sample after heating value. Item: CCCCCc1cc(OC(=O)C(N)C(C)C)c2c(c1)OC(C)(C)C1CCC(C)=CC21 (stereo not drawn) [THC-Valinate (6), Δ^9-THC-valinate]
74.35

Please report the measured THC content of the sample after heating for CCCCCc1cc(OC(=O)[C@@H](N)Cc2c[nH]c3ccccc23)c2c(c1)OC(C)(C)[C@@H]1CCC(C)=C[C@@H]21 [THC-Tryptophanate (10), Δ^9-THC-tryptophinate]
96.10

// fetch THC content of the sample after heating given entry CCCCCc1cc(OC(=O)C(N)CC(C)C)c2c(c1)OC(C)(C)C1CCC(C)=CC21 (stereo not drawn) [THC-Leucinate (8), Δ^9-THC-leucinate]
25.86
